Assay: Drug level in Sprague-Dawley rat blood at 3 mg/kg, po after 2 hrs by HPLC analysis
Assay type: ADME, organism-based
Design: dose 3 mg/kg, route oral
Conditions: whole blood, read-out: Drug uptake
Measured Parameter: concentration at 2 h (nM)
One number for each entry, in nM.

The cases that follow already have their concentration at 2 h on record.
CC(=O)N1CCc2c(sc3nc(SCCCN4CCN(c5ccc6ccccc6n5)CC4)n(N)c(=O)c23)C1	56
Nn1c(CCCCN2CCN(c3ccc4ccccc4n3)CC2)nc2ccccc2c1=O	97.4
Nn1c(SCCCN2CCN(c3ccc4ccccc4n3)CC2)nc2c(c1=O)CCCC2	21.2

For every record below, what is its concentration at 2 h?
1. CC(=O)N1CCc2c(sc3nc(CCCCN4CCN(c5ccc6ccccc6n5)CC4)n(N)c(=O)c23)C1
2. Nn1c(CCCCN2CCN(c3ccc4ccccc4n3)CC2)nc2c(c1=O)CCCC2

stdout:
51
66.5
